Target: human recombinant adrenergic α2B receptor (Homo sapiens)
Construct: expressed in transfected cells; host or cells: CHO-K1 cells
Sequence (P18089 whole entry): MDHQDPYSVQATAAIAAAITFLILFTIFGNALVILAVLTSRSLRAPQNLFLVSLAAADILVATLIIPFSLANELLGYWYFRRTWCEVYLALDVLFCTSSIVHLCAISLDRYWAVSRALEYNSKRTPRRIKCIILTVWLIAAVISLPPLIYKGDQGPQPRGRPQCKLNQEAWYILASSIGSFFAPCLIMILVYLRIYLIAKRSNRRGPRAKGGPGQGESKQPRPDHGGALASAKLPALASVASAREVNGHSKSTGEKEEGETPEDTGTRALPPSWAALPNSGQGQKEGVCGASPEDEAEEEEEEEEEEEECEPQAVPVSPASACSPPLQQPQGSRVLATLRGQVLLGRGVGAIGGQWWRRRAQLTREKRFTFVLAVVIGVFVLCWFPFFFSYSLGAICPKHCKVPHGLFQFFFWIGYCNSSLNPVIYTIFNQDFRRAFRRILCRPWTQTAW
Test: Adrenergic α2B radioligand binding ([3H]Rauwolscine)
Details: 1 μM; read-out: Adrenergic α2B, inhibition of ligand binding (1 μM)
Threshold check on inhibition at 1 µM: at or above 80% gives True, strictly below gives False.

Quick check, inhibition at 1 µM >= 80%? CN1C2CCC1c1c(n(CCC(=O)N3CCNC(=O)C3)c3ccc(Cl)cc13)C2 (stereo not drawn) [Compound 3]
False

Now this one: CN1C2CCC1c1c(n(CCCc3ccc(C(F)(F)F)nc3)c3ccc(Cl)cc13)C2 (stereo not drawn) [Compound 37]
False

----------
System: rat central imidazoline I2 receptor
Experiment: Central imidazoline I2 radioligand binding ([3H]Idazoxan)
Settings: compound at 1 μM; inhibition of specific [3H]Idazoxan binding
# Imidazoline I2 Central (1 μM), Percentage Inhibition per record follows
Write the answer as a number in %, unit excluded.

// below: answered compounds
- compound: "CN1C2CCC1c1c(n(CC(=O)N3CCCC3)c3ccc(Cl)cc13)C2 (stereo not drawn)"
  reported_value: 1
- compound: "CN1C2CCC1c1c(n(CCC(=O)N3CCOCC3)c3ccc(Cl)cc13)C2 (stereo not drawn)"
  reported_value: "−7"

Let us move to another entry and its Imidazoline I2 Central (1 μM), Percentage Inhibition.
Report Imidazoline I2 Central (1 μM), Percentage Inhibition for Cc1ccc2c(c1)c1c(n2CCc2ccccc2)CC2CCCC1N2C (stereo not drawn) please.
27

----------
Target: human recombinant adrenergic α1D receptor (Homo sapiens)
Construct: expressed in transfected cells; host or cells: HEK-293 cells
Sequence (P25100 whole entry): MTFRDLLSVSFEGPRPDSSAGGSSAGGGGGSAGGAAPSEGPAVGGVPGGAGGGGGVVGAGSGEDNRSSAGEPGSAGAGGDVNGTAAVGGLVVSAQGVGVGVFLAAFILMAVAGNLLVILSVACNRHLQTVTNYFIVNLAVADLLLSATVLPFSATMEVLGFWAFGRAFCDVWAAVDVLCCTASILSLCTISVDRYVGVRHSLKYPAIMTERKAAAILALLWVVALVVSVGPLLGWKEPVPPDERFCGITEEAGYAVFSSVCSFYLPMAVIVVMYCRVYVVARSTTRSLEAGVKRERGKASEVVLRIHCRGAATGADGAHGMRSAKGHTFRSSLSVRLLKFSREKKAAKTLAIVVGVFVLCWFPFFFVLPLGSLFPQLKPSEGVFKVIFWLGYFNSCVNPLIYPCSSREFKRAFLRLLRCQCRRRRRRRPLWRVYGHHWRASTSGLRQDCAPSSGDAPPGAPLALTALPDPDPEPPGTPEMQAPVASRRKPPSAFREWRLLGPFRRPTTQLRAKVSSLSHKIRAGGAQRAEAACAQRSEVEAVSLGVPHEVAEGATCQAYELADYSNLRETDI
Assay: Adrenergic α1D radioligand binding ([3H]Prozosin)
Conditions: 1 μM; read-out: Adrenergic α1D, inhibition of ligand binding (1 μM)
Below, each entry is listed with its recorded inhibition at 1 µM.
The reply should be a number in %, with the unit left off.

Below, each entry is followed by its recorded inhibition at 1 µM result.
- compound: "Cc1ccc2c(c1)c1c(n2CCc2cnc(C)nc2)CC2CCC1N2C (stereo not drawn) [Compound 81]"
  inhibition at 1 µM, %: 42
- compound: "CN1C2CCC1c1c(n(CCc3cncc(Cl)c3)c3ccc(Cl)cc13)C2 (stereo not drawn) [Compound 87]"
  inhibition at 1 µM, %: 70
- compound: "Cc1ccc2c(c1)c1c(n2CC(O)c2ccc(C)nc2)CC2CCC1N2C (stereo not drawn) [Compound 91]"
  inhibition at 1 µM, %: 24
- compound: "CN1C2CCC1c1c(n(C#Cc3ccc(F)cc3)c3ccc(Cl)cc13)C2 (stereo not drawn) [Compound 138]"
  inhibition at 1 µM, %: 60
- compound: "Cc1ccc2c(c1)c1c(n2CCc2ccccc2)CC2CCC1N2C (stereo not drawn) [Compound 2]"
  inhibition at 1 µM, %: 94

API: value(readout=inhibition at 1 µM, system=human recombinant adrenergic α1D receptor (Homo sapiens)) for record Cc1ccc2c(c1)c1c(n2CCC#N)CC2CCC1N2C (stereo not drawn) [Compound 103]
86

Try this compound next: COc1ccc(/C(C)=C/n2c3c(c4cc(Cl)ccc42)C2CCC(C3)N2C)cc1F (stereo not drawn) [Compound 136]
61

// next record CN1C2CCC1c1c(n(CCC(=O)N3CCOCC3)c3ccc(Cl)cc13)C2 (stereo not drawn) [Compound 13]
8

Now consider CN1C2CCC1c1c(n(CCc3ccc(F)cc3)c3ccc(Cl)cc13)C2 (stereo not drawn) [Compound 57] and answer again.
69

----------
Target: human recombinant serotonin (5-Hydroxytryptamine) 5-HT7 receptor (Homo sapiens, UniProt P34969)
Construct: expressed in transfected cells; host or cells: CHO cells
Sequence (P34969 whole entry): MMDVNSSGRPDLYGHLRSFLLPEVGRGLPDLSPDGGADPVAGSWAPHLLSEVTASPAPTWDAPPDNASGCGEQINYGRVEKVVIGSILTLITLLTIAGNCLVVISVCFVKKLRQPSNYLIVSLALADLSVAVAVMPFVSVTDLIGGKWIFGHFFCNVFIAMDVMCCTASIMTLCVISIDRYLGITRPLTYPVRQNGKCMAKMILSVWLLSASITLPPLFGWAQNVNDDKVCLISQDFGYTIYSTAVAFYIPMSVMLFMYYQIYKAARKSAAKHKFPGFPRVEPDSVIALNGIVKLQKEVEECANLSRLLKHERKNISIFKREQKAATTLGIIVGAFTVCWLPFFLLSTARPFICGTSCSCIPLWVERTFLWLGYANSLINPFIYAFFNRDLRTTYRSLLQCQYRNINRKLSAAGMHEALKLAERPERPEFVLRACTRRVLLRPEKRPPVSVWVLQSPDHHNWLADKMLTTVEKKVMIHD
Test: Serotonin 5-HT7 radioligand binding ([3H]LSD)
Settings: read-out: Serotonin 5-HT7, inhibition of ligand binding (1 μM)
readout_type: inhibition at 1 µM (%)
All answers are understood in %, so give the number only.

Below: 5 compounds and their reported inhibition at 1 µM.
- compound: "Cc1ccc2c(c1)c1c(n2CCc2ccccc2)CC2CCCC1N2C (stereo not drawn)"
  readout_type: "inhibition at 1 µM"
  reported_value: 92
- compound: "COc1ccc(C#Cn2c3c(c4cc(C)ccc42)C2CCC(C3)N2C)cc1F (stereo not drawn)"
  readout_type: "inhibition at 1 µM"
  reported_value: 24
- compound: "CN1C2CCC1c1c(n(CCc3ccc(F)cc3)c3ccc(Cl)cc13)C2 (stereo not drawn)"
  readout_type: "inhibition at 1 µM"
  reported_value: 94
- compound: "COc1ccc(C(C)(O)Cn2c3c(c4cc(Cl)ccc42)C2CCC(C3)N2C)cc1F (stereo not drawn)"
  readout_type: "inhibition at 1 µM"
  reported_value: 75
- compound: "Cc1ccc2c(c1)c1c(n2C(=O)Cc2ccc(Cl)cc2)CC2CCC1N2C (stereo not drawn)"
  readout_type: "inhibition at 1 µM"
  reported_value: 43

Can you look up the measured inhibition at 1 µM of CN1C2CCC1c1c(n(C#Cc3ccc(Cl)cc3)c3ccc(Cl)cc13)C2 (stereo not drawn) for me?
57

Now give it for CN1C2CCC1c1c(n(CC(=O)c3ccc(Cl)cc3)c3ccc(Cl)cc13)C2 (stereo not drawn) too.
78

Input C/C(=C\n1c2c(c3cc(C)ccc31)C1CCC(C2)N1C)c1ccc(Cl)cc1Cl (stereo not drawn)
87

Request: CN1C2CCC1c1c(n(C#Cc3ccc(F)cc3)c3ccc(Cl)cc13)C2 (stereo not drawn)
91

And what about the compound C/C(=C\n1c2c(c3cc(Cl)ccc31)C1CCC(C2)N1C)c1cccnc1 (stereo not drawn) ?
66

# iterate: C/C(=C\n1c2c(c3cc(Cl)ccc31)C1CCC(C2)N1C)c1ccc(Cl)cc1 (stereo not drawn)
95

Likewise for CN1C2CCC1c1c(n(CCc3ccc(Cl)cc3)c3ccc(Cl)cc13)C2 (stereo not drawn) ?
93

----------
Here, each record is paired with measured inhibition at 1 µM data.
Biological target: human recombinant serotonin (5-Hydroxytryptamine) 5-HT2C receptor (Homo sapiens, UniProt P28335)
Construct: expressed in transfected cells; host or cells: CHO-K1 cells
Sequence (P28335 33-458): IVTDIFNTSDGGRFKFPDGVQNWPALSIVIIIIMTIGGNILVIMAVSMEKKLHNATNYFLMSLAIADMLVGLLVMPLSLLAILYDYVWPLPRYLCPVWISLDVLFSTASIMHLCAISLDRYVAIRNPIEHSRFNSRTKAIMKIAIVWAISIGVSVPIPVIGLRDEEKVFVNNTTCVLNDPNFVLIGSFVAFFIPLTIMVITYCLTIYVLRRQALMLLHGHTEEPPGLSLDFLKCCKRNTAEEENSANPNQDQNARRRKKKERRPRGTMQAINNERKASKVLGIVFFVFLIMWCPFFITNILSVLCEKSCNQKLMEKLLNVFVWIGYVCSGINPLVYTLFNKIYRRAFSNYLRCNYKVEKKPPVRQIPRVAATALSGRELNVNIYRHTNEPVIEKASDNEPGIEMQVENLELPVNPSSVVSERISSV
Test: Serotonin 5-HT2C radioligand binding ([3H]Mesulergine)
Conditions: read-out: Serotonin 5-HT2C, inhibition of ligand binding (1 μM)
The answer should read as a number with its unit following.

Would you please look over these solved cases?
- compound: "Cc1ccc2c(c1)c1c(n2CC(O)c2ccc(C)nc2)CC2CCC1N2C (centres unmarked) [Compound 91]"
  readout_type: "inhibition at 1 µM"
  reported_value: "-4%"
- compound: "CN1C2CCC1c1c(n(CCc3ccc(C(F)(F)F)nc3)c3cc(F)c(Cl)cc13)C2 (centres unmarked) [Compound 77]"
  readout_type: "inhibition at 1 µM"
  reported_value: "-8%"
- compound: "CN1C2CCC1c1c(n(CCc3ccc(Cl)cc3)c3ccc(Cl)cc13)C2 (centres unmarked) [Compound 58]"
  readout_type: "inhibition at 1 µM"
  reported_value: "84%"
- compound: "CN1C2CCC1c1c(n(CCC(=O)N3CCNCC3)c3ccc(Cl)cc13)C2 (centres unmarked) [Compound 9]"
  readout_type: "inhibition at 1 µM"
  reported_value: "5%"
- compound: "CN1C2CCC1c1c(n(CCC#N)c3ccc(Cl)cc13)C2 (centres unmarked) [Compound 107]"
  readout_type: "inhibition at 1 µM"
  reported_value: "25%"

Find the recorded inhibition at 1 µM belonging to C/C(=C\n1c2c(c3cc(Cl)ccc31)C1CCC(C2)N1C)c1ccc(Cl)c(Cl)c1 (centres unmarked) [Compound 132] and report it.
95%

Now try CN1C2CCC1c1c(n(CCCc3ccc(Cl)cc3)c3ccc(Cl)cc13)C2 (centres unmarked) [Compound 39] .
94%

Next compound up: Cc1cncc(CCn2c3c(c4cc(C)ccc42)C2CCC(C3)N2C)c1 (centres unmarked) [Compound 90]
27%

----------
Listed next: entries and their corresponding inhibition at 1 µM.
Biological target: human recombinant serotonin (5-Hydroxytryptamine) 5-HT6 receptor (Homo sapiens, UniProt P50406)
Construct: expressed in transfected cells; host or cells: human HeLa cells
Sequence (P50406 whole entry): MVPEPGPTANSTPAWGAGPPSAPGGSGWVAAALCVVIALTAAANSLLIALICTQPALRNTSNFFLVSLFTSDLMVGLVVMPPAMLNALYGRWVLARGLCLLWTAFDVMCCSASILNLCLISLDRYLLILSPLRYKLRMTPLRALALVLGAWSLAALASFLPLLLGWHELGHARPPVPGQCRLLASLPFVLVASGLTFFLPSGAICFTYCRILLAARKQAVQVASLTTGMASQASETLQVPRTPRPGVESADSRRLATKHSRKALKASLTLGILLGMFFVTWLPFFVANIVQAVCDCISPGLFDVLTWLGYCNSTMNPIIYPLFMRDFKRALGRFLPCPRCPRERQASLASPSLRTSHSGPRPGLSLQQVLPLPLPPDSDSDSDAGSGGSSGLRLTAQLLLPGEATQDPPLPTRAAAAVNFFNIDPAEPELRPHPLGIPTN
Assay: Serotonin 5-HT6 radioligand binding ([3H]LSD)
Conditions: read-out: Serotonin 5-HT6, inhibition of ligand binding (1 μM)
State the answer as a number, implicitly in %.

- molecule: "Cc1ccc(CCn2c3c(c4cc(Cl)ccc42)C2CCC(C3)N2C)cn1 (stereo not drawn)"
  inhibition at 1 µM (%): 10

Entry CN1C2CCC1c1c(n(CCC(N)=O)c3ccc(Cl)cc13)C2 (stereo not drawn) has what inhibition at 1 µM?
-4

Param item: CN1C2CCC1c1c(n(CCCc3ccc(Cl)cc3)c3ccc(Cl)cc13)C2 (stereo not drawn)
24

Field entry: CN1C2CCC1c1c(n(CCC(=O)O)c3ccc(Cl)cc13)C2 (stereo not drawn)
-1

Now the same for `CN1[C@@H]2CC[C@H]1c1c(n(CCc3ccc(C(F)(F)F)nc3)c3ccccc13)C2`
8

And what about the molecule C/C(=C\n1c2c(c3cc(C)ccc31)C1CCC(C2)N1C)c1ccc(F)cc1 (stereo not drawn) ?
85

Also need CN1C2CCC1c1c(n(C#Cc3ccc(Cl)cc3)c3ccc(Cl)cc13)C2 (stereo not drawn) , thanks.
36

Field entry: CN1C2CCC1c1c(n(CCc3cccnc3)c3ccc(Cl)cc13)C2 (stereo not drawn)
6

What about `CN1[C@@H]2CC[C@H]1c1c(n(CC(=O)N3CCCCC3)c3ccccc13)C2` ?
15
